- System: NCI-H522 lung
- assay: NCI tumour cell line growth inhibition, 48 h; in the data active means GI50 below about 0.43 µM; inactive means the rest
Hi! Could you answer with just one of these? yes (1) (active), no (0) (inactive)

Examples with answers:
Cc1cc(S(=O)(=O)/N=C(/N)Nc2ccccc2O)c(SCc2ccccc2)cc1Cl    no (0)
COc1cc(N2C(=O)[C@H](O)C2c2ccc(SC)cc2)cc(OC)c1OC (stereo not given in full)    yes (1)
CC(=O)OC12C=C(C)C(C(C)C1)C1C(=O)N(CCN3CCOCC3)C(=O)C12 (stereo not given)    no (0)

Could you now consider this next compound?
In: Name the outcome recorded for N#Cc1c(N2CCOCC2)nc(=S)[nH]c1-c1ccco1 in the assay.
Out: no (0)

----------
- System: RXF 393 renal
- assay: NCI tumour cell line growth inhibition, 48 h
Assign 1 to entries whose TGI meets or exceeds 5 µM; assign 0 to the rest.

COc1cc2c3c(n(C)c(=O)c2cc1OC)-c1cc2c(cc1/C3=C\CCCCN1C(=O)c3ccccc3C1=O)OCO2    1
NC(CSC1c2ccccc2-c2ccccc21)C(=O)O (stereo unspecified)    1
Nc1n[n+](CC(=O)c2ccccc2)c2sc(-c3ccccc3)nn12    1
Cc1ccc(/C=N\NC(=O)c2[nH]c3ccc(F)cc3c2-c2ccccc2)cc1    0
C#C[C@]1(O)CCCC2=CC(=O)CC[C@@]21C    1
CC(=O)C1C(=O)C(=O)N(c2cccc([N+](=O)[O-])c2)C1=O (stereo unspecified)    1
CCC(CCCN)Nc1cc(OC)cc2c(C)ccnc12 (stereo unspecified)    1
CN(C)CCCN1c2ccccc2Sc2ccc3ccccc3c21    0
O=S(=O)(c1ccc(Cl)cc1)C(Cl)(Cl)Cl    1

Turning now to a further compound:
In: Threshold query (TGI >= 5 µM) on CC(=O)Nc1ccc(SC#N)c2c(NC(C)=O)cccc12
Out: 1

----------
// NCI-H460 lung GI50 records

Example molecules with recorded GI50:
CCOc1ccccc1C(=O)N1CCN(c2cc(Cl)cc(Cl)c2)CC1    0.0362 µM
CCN(CC)c1ccc2cc(C(=O)Nc3ccc4[nH]c(C(=O)N5C[C@@H](CCl)c6c5cc(OC(=O)Nc5ccccc5)c5[nH]cc(C)c65)cc4c3)oc2c1    39.4 µM
Cc1cc(S(=O)(=O)/N=C(/N)Nc2ccccc2O)c(SCc2ccccc2)cc1Cl    7.64 µM
COc1cccc(OC(=O)c2ccc(C(F)(F)F)nc2Nc2cc(Cl)ccc2C)c1    2.92 µM
O=[N+]([O-])c1ccc(C=Cc2ccccc2)cc1.[C-]#[O+].[C-]#[O+].[C-]#[O+].[Cr]    3.37 µM
O=c1[nH]c(=O)n(C2CC(O)C(COP(=O)(OCc3ccc([N+](=O)[O-])o3)N(CCCCCl)CC(O)CO)O2)cc1F (stereo not drawn)    < 0.0474 µM
O=C(Nc1ccc(OCc2nnc(-c3ccc(Cl)cc3)o2)c(F)c1)Nc1ccc(Cl)c(C(F)(F)F)c1    1.85 µM

Now examine the next entry.
Given the molecule CN[C@@H](C)C(=O)N[C@H](C(=O)N1CCC[C@H]1C(=O)Nc1sc(-c2ncco2)nc1-c1ccccc1)C1CCCCC1 and test system NCI-H460 lung, the measured GI50 is 37.7 µM

----------
- Tested on: 786-0 renal
- assay: NCI tumour cell line growth inhibition, 48 h
Where a SMILES comes first, the peptide text is derived from it. The star is where a group is joined. Boc = CC(C)(C)OC(=O)*
The entries below come with measured TGI values attached.

Worked set:
CCOC(=O)C1=C(C)N(c2ccc(Cl)cc2)[C@]2(C#N)C(O)=C(Cl)C(Cl)=C(O)[C@]12C#N    > 100 µM
C[C@@H]1CN(Cc2ccc(F)cc2)[C@@H](C)CN1C(=O)c1cc2c(C(=O)C(=O)N(C)C)cn(C)c2cc1Cl    67.1 µM
O=C(NC1CCCCC1NC(c1ccccc1)(c1ccccc1)c1ccccc1)C(=O)NC1CCCCC1NC(c1ccccc1)(c1ccccc1)c1ccccc1 (centres undefined)    > 100 µM

Reported TGI ( CO/N=C(\COc1ccc2c(c1)[nH]c1ccccc12)c1ccc(F)cc1 ) = > 100 µM

compound O=C1OCC2=C1C(c1ccc(Cl)c(Cl)c1)c1cc3c(cc1N2CCO)OCCO3 (centres undefined) , TGI observed: 7.62 µM

Lab note: measured TGI of CC(C)(C)OC(=O)NC(Cc1ccc(O)cc1)C(=O)N1CCCC1C(=O)O (stereo not drawn) (Boc-Tyr-Pro-OH; configuration not given here) was > 100 µM

TGI measured on O=S(=O)(c1ccc(Cl)cc1)C(Cl)(Cl)Cl = 18.1 µM

Quick note, TGI for Cc1ccc2c(C3Cc4ccccc4N3C(=O)/C=C\C(=O)O)c(C)[nH]c2c1 (centres undefined) landed at > 100 µM

Consider NC(CSC1c2ccccc2-c2ccccc21)C(=O)O (centres undefined) . Its measured TGI is > 100 µM

meta.source: PubChem BioAssay (NCI)
